Below, each entry is listed alongside its reported pIC50.
# experimental system: BTK (Homo sapiens, UniProt Q06187)
# Sequence (Q06187 whole entry): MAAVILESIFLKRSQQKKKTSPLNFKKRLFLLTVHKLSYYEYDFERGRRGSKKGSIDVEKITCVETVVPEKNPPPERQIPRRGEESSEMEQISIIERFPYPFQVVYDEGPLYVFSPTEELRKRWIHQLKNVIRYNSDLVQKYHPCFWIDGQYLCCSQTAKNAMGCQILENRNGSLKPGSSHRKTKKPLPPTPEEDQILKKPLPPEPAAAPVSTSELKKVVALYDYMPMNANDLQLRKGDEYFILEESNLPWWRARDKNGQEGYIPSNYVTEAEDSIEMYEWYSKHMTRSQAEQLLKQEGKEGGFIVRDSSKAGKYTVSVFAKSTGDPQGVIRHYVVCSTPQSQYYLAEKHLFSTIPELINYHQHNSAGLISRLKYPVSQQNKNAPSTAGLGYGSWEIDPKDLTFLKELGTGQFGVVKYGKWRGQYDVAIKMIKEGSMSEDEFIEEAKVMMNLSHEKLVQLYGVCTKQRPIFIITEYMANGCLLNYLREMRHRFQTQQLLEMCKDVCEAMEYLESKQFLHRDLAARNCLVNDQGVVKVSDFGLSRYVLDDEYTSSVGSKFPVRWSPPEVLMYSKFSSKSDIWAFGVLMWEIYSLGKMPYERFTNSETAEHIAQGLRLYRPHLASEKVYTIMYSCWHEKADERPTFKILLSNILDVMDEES
# protocol summary: BTK kinase assay: time resolved-FRET (HTRF) assay
# Format: biochemical
# Set-up: recombinant full-length human BTK kinase with a (His)6 tag; (His)6; purchased Invitrogen Corporation, Carlsbad, Calif
# recorded conditions: 10 nM BTK, 60 μM ATP, 1 μM substrate
// pIC50 here means minus log10 of the molar concentration (mol/L)

Example molecules with recorded pIC50:
In [3]: df
Out[3]:
                                chem_smiles  reading
0  C=CC(=O)Nc1cccc(-c2nc(Nc3cccc(N4CCN(C)CC4)c3)nc3[nH]ncc23)c1     8.04
1  C=CC(=O)Nc1cccc(-c2nc(Nc3cccc(N4CCOCC4)c3)nc3[nH]cc(Cl)c23)c1     6.76
2  C=CC(=O)Nc1cccc(-c2nc(Nc3cccc(N4CCN(C)CC4)c3)ncc2Cl)c1     7.85
3  C=CC(=O)Nc1cccc(-c2nc(Nc3cccc(N4CCNCC4)c3)ncc2Cl)c1     7.15
4  C=CC(=O)Nc1cccc(-c2nc(Nc3cccc(N4CCNCC4)c3)nc3[nH]ncc23)c1     7.85
5  C=CC(=O)Nc1cccc(-c2nc(Nc3cccc(N4CCOCC4)c3)nc3[nH]ncc23)c1     8.10

Measured pIC50 of C=CC(=O)Nc1cccc(-c2nc(Nc3cccc(N4CCOCC4)c3)nc3[nH]nc(Cl)c23)c1 : 6.76

* * *

# protocol summary: Pharmacokinetics in mice
# Format: in vivo
# recorded conditions: mouse, plasma, po, 10 mg/kg, p.o. (HCl salt), 10 mg/kg oral gavage
measured quantity: Tmax (min)
Output spec: scalar in min, unitless text.

Field Tmax (entry C=CC(=O)Nc1cccc(-c2nc(Nc3cccc(N4CCOCC4)c3)nc3[nH]ncc23)c1 ) reads 15

* * *

# experimental system: Cytochrome P450 1A2 (Homo sapiens)
# Sequence (P05177 1-516): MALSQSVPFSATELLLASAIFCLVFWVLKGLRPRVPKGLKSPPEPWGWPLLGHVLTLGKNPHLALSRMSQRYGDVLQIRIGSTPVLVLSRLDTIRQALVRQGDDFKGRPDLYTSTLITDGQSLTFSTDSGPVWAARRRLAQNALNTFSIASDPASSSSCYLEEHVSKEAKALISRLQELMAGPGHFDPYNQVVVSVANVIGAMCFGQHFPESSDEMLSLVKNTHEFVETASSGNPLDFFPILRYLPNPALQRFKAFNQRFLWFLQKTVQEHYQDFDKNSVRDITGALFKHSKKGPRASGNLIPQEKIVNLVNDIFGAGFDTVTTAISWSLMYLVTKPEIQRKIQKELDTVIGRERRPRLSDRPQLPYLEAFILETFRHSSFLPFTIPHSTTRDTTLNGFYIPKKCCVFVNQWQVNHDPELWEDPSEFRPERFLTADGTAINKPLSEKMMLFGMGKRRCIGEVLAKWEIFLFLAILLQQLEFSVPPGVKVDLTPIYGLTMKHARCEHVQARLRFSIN
pIC50: −log10 of the molar value.
measured quantity: pIC50

The compound identified as C=CC(=O)Nc1cccc(-c2nc(Nc3cccc(N4CCOCC4)c3)nc3[nH]ncc23)c1 [Compound 3] registered its pIC50 at ≤ 5.00

* * *

# protocol summary: Pharmacokinetics in rat
# Type: in vivo, male Sprague Dawley rats
# recorded conditions: male, Sprague Dawley, plasma, PO 20 mg/kg, solution, read-out: AUC0-t
measured quantity: AUC(0-t) (ng·h/mL)
The reply should contain only the number, in ng·h/mL.

Quick note, AUC(0-t) for C=CC(=O)Nc1cccc(-c2nc(Nc3cccc(N4CCOCC4)c3)nc3[nH]ncc23)c1 [SC-1344] landed at 104
